Data origin: patent US5428031A

- tested_on: IKs (slowly activating delayed rectifier K+ current) (Cavia porcellus, UniProt O70344)
- Construct: Guinea pig ventricular myocytes were isolated; endogenous in cells; host or cells: isolated guinea pig ventricular myocytes
- test_description: cell-based
- Type: cell-based, guinea pig
- test_context: Guinea Pig Myocytes; read-out: IC50 or % Block (μM), IKs (bare number: IC50)
attribute_measured: IC50 (µM)
Numbers only, in µM.

What IC50 value was documented for this compound, CC(C)S(=O)(=O)NC(=O)c1cccc(NC(=O)NC2N=C(C3CCCCC3)c3ccccc3N(C)C2=O)c1 (stereo not shown) ?
57

* * *

- tested_on: IKs (slowly activating delayed rectifier K+ current) (Cavia porcellus, UniProt O70344)
- Construct: Guinea pig ventricular myocytes were isolated; endogenous in cells; host or cells: isolated guinea pig ventricular myocytes
- test_description: cell-based
- Format: cell-based, guinea pig
attribute_measured: IC50 (nM)
Numbers only, in nM.

What IC50 value was documented for this molecule, Cc1cccc(NC(=O)N[C@@H]2N=C(c3ccccc3)c3ccccc3N(C)C2=O)c1 ?
215

* * *

- tested_on: IKr (rapidly activating delayed rectifier K+ current) (Cavia porcellus, UniProt O08703)
- Construct: Guinea pig ventricular myocytes were isolated; endogenous in cells; host or cells: isolated guinea pig ventricular myocytes
- Sequence (O08703 whole entry): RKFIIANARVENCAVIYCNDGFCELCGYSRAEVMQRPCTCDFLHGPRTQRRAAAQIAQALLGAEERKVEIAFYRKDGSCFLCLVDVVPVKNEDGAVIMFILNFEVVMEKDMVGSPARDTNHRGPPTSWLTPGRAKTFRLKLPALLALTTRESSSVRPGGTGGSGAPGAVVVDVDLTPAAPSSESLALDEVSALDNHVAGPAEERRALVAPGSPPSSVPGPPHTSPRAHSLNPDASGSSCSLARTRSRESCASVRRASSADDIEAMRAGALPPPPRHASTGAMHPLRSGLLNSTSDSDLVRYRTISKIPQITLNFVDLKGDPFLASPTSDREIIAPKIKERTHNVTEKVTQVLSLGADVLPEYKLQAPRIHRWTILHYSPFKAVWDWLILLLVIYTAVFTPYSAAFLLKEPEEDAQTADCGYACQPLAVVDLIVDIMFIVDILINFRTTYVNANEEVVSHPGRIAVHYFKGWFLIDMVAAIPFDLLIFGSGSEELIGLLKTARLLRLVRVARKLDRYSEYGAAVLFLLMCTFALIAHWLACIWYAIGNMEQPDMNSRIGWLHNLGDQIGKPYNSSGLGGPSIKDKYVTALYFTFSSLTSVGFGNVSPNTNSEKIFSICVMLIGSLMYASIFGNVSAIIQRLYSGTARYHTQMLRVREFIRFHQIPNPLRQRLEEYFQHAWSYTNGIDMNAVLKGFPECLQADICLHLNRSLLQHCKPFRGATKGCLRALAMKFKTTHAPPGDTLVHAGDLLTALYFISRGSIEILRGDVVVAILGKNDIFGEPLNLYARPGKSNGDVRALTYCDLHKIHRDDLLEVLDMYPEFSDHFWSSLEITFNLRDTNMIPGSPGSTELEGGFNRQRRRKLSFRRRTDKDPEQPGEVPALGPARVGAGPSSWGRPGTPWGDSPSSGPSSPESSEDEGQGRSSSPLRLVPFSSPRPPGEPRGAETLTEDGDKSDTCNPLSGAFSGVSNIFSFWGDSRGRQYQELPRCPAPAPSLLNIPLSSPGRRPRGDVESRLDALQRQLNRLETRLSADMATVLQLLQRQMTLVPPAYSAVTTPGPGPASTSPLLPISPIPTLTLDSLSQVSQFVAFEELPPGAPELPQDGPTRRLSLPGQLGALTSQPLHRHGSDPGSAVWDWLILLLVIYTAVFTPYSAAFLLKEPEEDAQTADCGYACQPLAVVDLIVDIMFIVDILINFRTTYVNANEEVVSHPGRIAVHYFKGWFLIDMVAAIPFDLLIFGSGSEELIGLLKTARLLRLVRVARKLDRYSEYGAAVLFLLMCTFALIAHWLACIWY
- test_description: voltage clamp measurement of IKr block in isolated guinea pig ventricular myocytes
- Assay type: cell-based
attribute_measured: IC50

What IC50 value was documented for this compound, Cc1cccc(NC(=O)N[C@@H]2N=C(c3ccccc3)c3ccccc3N(C)C2=O)c1 ?
~5 µM
